B1: KCNK9 (parent)
chain: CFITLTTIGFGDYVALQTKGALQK

variants of: B1; experiment: protein stability index of a GFP-peptide fusion (GPS, HEK-293T) (PSI 1-6); higher = more stable; conditions: c terminus: a fixed tail appended;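 also: lentivirally expressed fusions sorted by FACS into six bins by GFP to DsRed ratio, PSI derived from sequencing read proportions per bin multiplied by bin number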
Consider the following variants; for each one, report its protein stability index.
Give bare numbers.

// solved cases for protein stability index follow
# variant.annotation, protein stability index
measured = [
    ("C1P", 1.66),
    ("G9A", 3.95),
    ("Q17G", 2.38),
    ("K24F", 3.25),
    ("F2P", 2.5),
]

Return reported protein stability index values for all items listed beneath this line.
1. L5E
2. Q17P
3. V14D
4. F2Y
5. D12A
6. F2N
7. I3P
8. G9R

A)
1: 2.38; 2: 3.82; 3: 2.74; 4: 1.79; 5: 3.21; 6: 1.61; 7: 2.68; 8: 1.36

Return reported protein stability index values for all items listed beneath this line.
1. L5P
2. L16Q

A)
1: 2.17; 2: 2.65
